# target.entity: 5-hydroxytryptamine receptor 6 (Homo sapiens, UniProt P50406)
# Sequence (P50406 whole entry): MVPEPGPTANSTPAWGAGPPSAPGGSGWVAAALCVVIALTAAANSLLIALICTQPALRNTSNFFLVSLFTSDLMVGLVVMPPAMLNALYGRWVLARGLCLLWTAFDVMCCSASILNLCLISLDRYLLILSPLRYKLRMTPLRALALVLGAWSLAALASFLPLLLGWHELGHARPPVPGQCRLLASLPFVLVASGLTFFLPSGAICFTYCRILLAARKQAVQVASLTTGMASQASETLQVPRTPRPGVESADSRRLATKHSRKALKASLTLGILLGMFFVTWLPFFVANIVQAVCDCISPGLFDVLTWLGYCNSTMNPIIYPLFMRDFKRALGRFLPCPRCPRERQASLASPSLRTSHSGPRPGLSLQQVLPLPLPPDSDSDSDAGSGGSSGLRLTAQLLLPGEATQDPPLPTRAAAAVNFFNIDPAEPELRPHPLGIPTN
# test.description: Agonist activity at 5HT6 receptor
observation.type: pKi
Would you please state pKi, meaning minus log10 of the concentration in mol/L, as a bare number?

Recorded results for 2 compounds are shown here.
| compound.structure | target.entity | pKi |
| --- | --- | --- |
| O=S(=O)(Nc1ccc2c(c1)CCN(Cc1cc[nH]n1)CC2)c1ccc(-c2ccccn2)s1 | 5-hydroxytryptamine receptor 6 (Homo sapiens, UniProt P50406) | 6.80 |
| CC(C)Oc1ccc(S(=O)(=O)Nc2ccc3c(c2)CCN(Cc2cc[nH]n2)CC3)cc1 | 5-hydroxytryptamine receptor 6 (Homo sapiens, UniProt P50406) | 6.70 |

Exercise: Which pKi is listed for `Cc1ccc(S(=O)(=O)Nc2ccc3c(c2)CCN(Cc2ccn[nH]2)CC3)cc1Cl` ?
Solution: 8.20

Exercise: For `CN1CCOc2cc(S(=O)(=O)Nc3ccc4c(c3)CCN(Cc3cc[nH]n3)CC4)ccc21` , what is its reported pKi?
Solution: 7.80

Exercise: Data request, read-out pKi, for `O=S(=O)(Nc1ccc2c(c1)CCN(Cc1cc[nH]n1)CC2)c1ccc(N2CCOCC2)nc1`
Solution: 6.20

Exercise: // returns reported pKi for input `O=S(=O)(Nc1ccc2c(c1)CCN(Cc1cc[nH]n1)CC2)c1ccc(-c2ccccc2)cc1`
Solution: 6.90

====

# target.entity: Motilin receptor (Homo sapiens)
# Sequence (O43193 whole entry): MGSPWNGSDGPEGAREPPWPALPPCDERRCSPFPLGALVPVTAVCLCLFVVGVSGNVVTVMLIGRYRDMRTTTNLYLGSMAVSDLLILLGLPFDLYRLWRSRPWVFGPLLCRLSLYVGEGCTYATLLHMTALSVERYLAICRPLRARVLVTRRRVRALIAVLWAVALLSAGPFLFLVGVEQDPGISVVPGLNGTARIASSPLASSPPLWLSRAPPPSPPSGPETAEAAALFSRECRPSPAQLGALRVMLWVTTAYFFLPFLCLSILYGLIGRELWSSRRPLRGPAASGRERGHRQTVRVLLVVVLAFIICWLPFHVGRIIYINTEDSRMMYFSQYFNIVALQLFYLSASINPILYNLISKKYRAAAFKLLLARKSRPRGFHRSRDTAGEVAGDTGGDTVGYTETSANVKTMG
# test.description: Agonist activity at human recombinant motilin receptor expressed in CHO cells by FLIPR assay
observation.type: EC50 (nM)
// units = nM; emit number, no label

| compound | target.entity | scale.unit | EC50 |
| --- | --- | --- | --- |
| CCCCc1ccc(S(=O)(=O)Nc2ccc3c(c2)CCN(CC2CCOC2)CC3)cc1 (centres undefined) | Motilin receptor (Homo sapiens) | nM | 2000 |

Exercise: Record request: EC50 value, item `CC(C)COc1ccc(S(=O)(=O)Cc2ccc3c(c2)CCNCC3)cn1`
Solution: 39.8

Exercise: Could you share which EC50 value was measured for `O=S(=O)(Cc1ccccc1)Nc1ccc2c(c1)CCN(Cc1ccn[nH]1)CC2` ?
Solution: 2510

Exercise: Could you tell me which EC50 is on file for `O=C(Nc1ccc(F)cc1)c1ccc(S(=O)(=O)Cc2ccc3c(c2)CCNCC3)cn1` ?
Solution: 2000

====

# Test system: Liver microsomes
# test.description: Intrinsic clearance in rat liver microsomes after 30 mins
# Assay type: ADME, Microsome
# condition.summary: 0.5 h
observation.type: CL

Below: 5 compounds and their reported CL.
| compound.structure | CL |
| --- | --- |
| O=S(=O)(Cc1ccc2c(c1)CCNCC2)c1ccc(-c2ccc(F)c(F)c2)cc1 | 1.1 mL/min/g |
| O=S(=O)(Cc1ccc2c(c1)CCNCC2)c1ccc(-c2ccc(Cl)cc2)cc1 | < 0.5 mL/min/g |
| O=S(=O)(Cc1ccc2c(c1)CCNCC2)c1ccc(-c2ccc(F)cc2)cc1 | < 1 mL/min/g |
| O=S(=O)(Cc1ccc2c(c1)CCNCC2)c1ccc(N2CCOCC2)nc1 | < 1 mL/min/g |
| O=S(=O)(Nc1ccc2c(c1)CCN(Cc1cc[nH]n1)CC2)c1ccc(N2CCOCC2)nc1 | 3.8 mL/min/g |

Exercise: Could you tell me which CL is on file for `O=S(=O)(Cc1ccc2c(c1)CCNCC2)c1ccc(-c2ccc(F)cc2)nc1` ?
Solution: < 0.5 mL/min/g

Exercise: Item under review: `O=S(=O)(Cc1ccc2c(c1)CCNCC2)c1ccc(-c2ccc(Cl)cc2)nc1` . Reported CL?
Solution: < 1 mL/min/g

Exercise: Bench note: what CL did `O=S(=O)(Cc1ccc2c(c1)CCNCC2)c1ccc(Nc2ccc(F)cc2)nc1` show?
Solution: < 0.5 mL/min/g

====

# target.entity: D(2) dopamine receptor (Homo sapiens, UniProt P14416)
# Sequence (P14416 whole entry): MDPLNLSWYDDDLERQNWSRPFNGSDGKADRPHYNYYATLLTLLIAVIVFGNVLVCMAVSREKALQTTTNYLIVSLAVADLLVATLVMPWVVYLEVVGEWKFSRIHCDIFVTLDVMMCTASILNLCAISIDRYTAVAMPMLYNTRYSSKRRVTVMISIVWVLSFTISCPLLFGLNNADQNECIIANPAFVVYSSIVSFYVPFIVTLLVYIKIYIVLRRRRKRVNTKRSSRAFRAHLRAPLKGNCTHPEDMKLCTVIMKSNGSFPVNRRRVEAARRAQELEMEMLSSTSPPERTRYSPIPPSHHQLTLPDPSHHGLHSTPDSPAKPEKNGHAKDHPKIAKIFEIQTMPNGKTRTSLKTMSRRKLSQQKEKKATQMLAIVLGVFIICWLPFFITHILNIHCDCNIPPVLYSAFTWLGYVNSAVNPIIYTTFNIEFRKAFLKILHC
# test.description: Agonist activity at dopamine D2 receptor
observation.type: Ki

Use the examples below as a reference point.
| compound.structure | Ki |
| --- | --- |
| CN1CCOc2cc(S(=O)(=O)Nc3ccc4c(c3)CCN(Cc3cc[nH]n3)CC4)ccc21 | > 1000 nM |
| O=S(=O)(Nc1ccc2c(c1)CCN(Cc1cc[nH]n1)CC2)c1ccc(-c2ccccn2)s1 | > 794 nM |
| Cc1ccc(S(=O)(=O)Nc2ccc3c(c2)CCN(Cc2ccn[nH]2)CC3)cc1Cl | 398 nM |
| O=S(=O)(Nc1ccc2c(c1)CCN(Cc1cc[nH]n1)CC2)c1ccc(-c2ccccc2)cc1 | 631 nM |
| CC(C)Oc1ccc(S(=O)(=O)Nc2ccc3c(c2)CCN(Cc2cc[nH]n2)CC3)cc1 | 631 nM |

Exercise: Which measured Ki value corresponds to `CCCCc1ccc(S(=O)(=O)Nc2ccc3c(c2)CCN(Cc2ccn[nH]2)CC3)cc1` ?
Solution: 100 nM

Exercise: Reported Ki, compound `O=S(=O)(Nc1ccc2c(c1)CCN(Cc1cc[nH]n1)CC2)c1ccc(N2CCOCC2)nc1` : ____
Solution: > 3160 nM

====

# target.entity: Growth hormone secretagogue receptor type 1 (Homo sapiens)
# test.description: Agonist activity at human ghrelin receptor
observation.type: EC50

A selection of reference data follows.
| compound.structure | EC50 |
| --- | --- |
| O=S(=O)(Nc1ccc2c(c1)CCN(Cc1cc[nH]n1)CC2)c1ccc(-c2ccccn2)s1 | > 10 µM |
| O=S(=O)(Cc1ccc2c(c1)CCNCC2)c1ccccc1 | > 10 µM |

// moving on: another record for EC50
Exercise: Would you mind telling me what EC50 value was observed for `CCCCc1ccc(S(=O)(=O)Nc2ccc3c(c2)CCN(Cc2cnc[nH]2)CC3)cc1` ?
Solution: 0.00398 µM

====

# Intrinsic activity listing for each entry below
# target.entity: Growth hormone secretagogue receptor type 1 (Homo sapiens)
# test.description: Intrinsic activity at human ghrelin receptor relative to ghrelin
Just the number.

In the examples that follow, each entry is paired with its recorded Intrinsic activity.
| compound.structure | observation.type | reported.measurement |
| --- | --- | --- |
| CCCCc1ccc(S(=O)(=O)Nc2ccc3c(c2)CCN(Cc2cc[nH]n2)CC3)cc1 | Intrinsic activity | 0.7 |
| CC(C)Oc1ccc(S(=O)(=O)Nc2ccc3c(c2)CCN(Cc2cc[nH]n2)CC3)cc1 | Intrinsic activity | 0.6 |
| CCCCc1ccc(S(=O)(=O)Nc2ccc3c(c2)CCN(Cc2cnc(C)[nH]2)CC3)cc1 | Intrinsic activity | 0.5 |

Exercise: # query: Intrinsic activity of entry `Cc1ccc(S(=O)(=O)Nc2ccc3c(c2)CCN(Cc2cc[nH]n2)CC3)cc1Cl`
Solution: 0.7

Exercise: I would be grateful if you could share the reported Intrinsic activity for `CCCCc1ccc(S(=O)(=O)Nc2ccc3c(c2)CCN(Cc2[nH]cnc2C)CC3)cc1` .
Solution: 0.6

====

# target.entity: UniProt O43193
# test.description: Agonist activity at human recombinant motilin receptor expressed in CHO cells by FLIPR assay
observation.type: pEC50
Interpret pEC50 as the negative base-10 log of the concentration measured in mol/L.

Some compounds with recorded pEC50:
| compound.structure | target.entity | reported.measurement |
| --- | --- | --- |
| CC(C)Oc1ccc(S(=O)(=O)Cc2ccc3c(c2)CCNCC3)cn1 | UniProt O43193 | 6.80 |
| CCCCc1ccc(S(=O)(=O)Nc2ccc3c(c2)CCN(Cc2cccc(NC(C)=O)c2)CC3)cc1 | UniProt O43193 | 6.30 |
| O=S(=O)(Cc1ccc2c(c1)CCNCC2)c1ccc2ccccc2c1 | UniProt O43193 | 5.90 |
| CN1CCOc2cc(S(=O)(=O)Nc3ccc4c(c3)CCN(Cc3cc[nH]n3)CC4)ccc21 | UniProt O43193 | 7.50 |

Exercise: What value of pEC50 has been recorded for this entry: `CCCCc1ccc(S(=O)(=O)Cc2ccc3c(c2)CCNCC3)cc1`
Solution: 6.90

Exercise: Entry `CCCCc1ccc(S(=O)(=O)Nc2ccc3c(c2)CCN(Cc2cnc(C)[nH]2)CC3)cc1` : reported pEC50 = ?
Solution: 7.20

Exercise: pEC50 for `O=S(=O)(Cc1ccc2c(c1)CCNCC2)c1ccc(Nc2ccc(F)cc2)nc1` ?
Solution: 7.70

Exercise: Endpoint output: pEC50 of `O=S(=O)(Nc1ccc2c(c1)CCN(Cc1cc[nH]n1)CC2)c1ccc(N2CCOCC2)nc1` . Value?
Solution: 8.20

Exercise: Request the reported pEC50 associated with `O=S(=O)(Cc1ccc2c(c1)CCNCC2)c1ccc(Oc2ccc(F)cc2)nc1`
Solution: 6.30

====

Listed here: items and their measured EC50.
# target.entity: Growth hormone secretagogue receptor type 1 (Homo sapiens, UniProt Q92847)
# Sequence (Q92847 whole entry): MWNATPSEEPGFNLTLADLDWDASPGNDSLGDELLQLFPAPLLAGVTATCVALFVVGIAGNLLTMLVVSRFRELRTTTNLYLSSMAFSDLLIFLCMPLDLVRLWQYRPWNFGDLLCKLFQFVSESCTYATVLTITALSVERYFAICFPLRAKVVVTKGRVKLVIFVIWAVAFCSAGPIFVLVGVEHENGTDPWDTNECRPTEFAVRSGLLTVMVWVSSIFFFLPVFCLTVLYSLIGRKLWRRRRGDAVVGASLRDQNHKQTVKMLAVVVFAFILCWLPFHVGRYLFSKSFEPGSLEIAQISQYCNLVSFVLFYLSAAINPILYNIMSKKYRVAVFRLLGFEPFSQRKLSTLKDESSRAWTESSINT
# test.description: Agonist activity at human ghrelin receptor

Some solved entries appear below for comparison.
| compound.structure | EC50 |
| --- | --- |
| CCCCc1ccc(S(=O)(=O)Nc2ccc3c(c2)CCN(Cc2ccc(NC(C)=O)s2)CC3)cc1 | > 1 µM |
| CC(C)(C)c1ccc(S(=O)(=O)Cc2ccc3c(c2)CCNCC3)cc1 | > 10 µM |
| O=S(=O)(Cc1ccc2c(c1)CCNCC2)c1ccc(N2CCOCC2)nc1 | > 1 µM |
| O=S(=O)(Nc1ccc2c(c1)CCN(Cc1cc[nH]n1)CC2)c1ccc(Cl)cc1 | > 10 µM |
| CCCCc1ccc(S(=O)(=O)Nc2ccc3c(c2)CCN(Cc2ccn[nH]2)CC3)cc1 | 0.0794 µM |

Proceed to the following item.
Exercise: Find the recorded EC50 belonging to `CCCCc1ccc(S(=O)(=O)Nc2ccc3c(c2)CCN(Cc2cccs2)CC3)cc1` and report it.
Solution: > 1 µM
